# reported MIC; entries follow
- System: Escherichia coli
- protocol text: Antibacterial activity against Escherichia coli ATCC 25922 after 24 hrs by two fold dilution technique
- Type: functional
- particulars: ATCC 25922, 24 h
recorded metric: MIC (µg/mL)

# compound, assay system, result value
rows = [
    ("CCCCC/C=C\\CCC(O)CCCCCCCc1nnc(Nc2ccccc2)s1 (centres undefined)", "Escherichia coli", 6.25),
    ("CCCCCCC(O)C/C=C\\CCCCCCCc1nnc(Nc2ccccc2)s1 (centres undefined)", "Escherichia coli", 6.5),
    ("CCCCC/C=C\\CC[C@H](O)CCCCCCCc1nnc(Nc2ccccc2)o1", "Escherichia coli", 6.25),
    ("CCCCCCCC/C=C\\CCCCCCCc1nnc(Nc2ccccc2)s1", "Escherichia coli", 25),
    ("CCCCCC[C@@H](O)C/C=C\\CCCCCCCc1nnc(Nc2ccccc2)o1", "Escherichia coli", 6.25),
    ("O=C(N[C@H](CO)[C@H](O)c1ccc([N+](=O)[O-])cc1)C(Cl)Cl [CHLORAMPHENICOL]", "Escherichia coli", 6.25),
    ("CCCCCCCC/C=C\\CCCCCCCc1nnc(Nc2ccccc2)o1", "Escherichia coli", 12.5),
    ("C=CCCCCCCCCc1nnc(Nc2ccccc2)s1", "Escherichia coli", 25),
    ("C=CCCCCCCCCc1nnc(Nc2ccccc2)o1", "Escherichia coli", 12.5),
]
